Form field: IC50 (one value per entry).
# Measured target: DnaK (Escherichia coli)
# Sequence (P0A6Y8 whole entry): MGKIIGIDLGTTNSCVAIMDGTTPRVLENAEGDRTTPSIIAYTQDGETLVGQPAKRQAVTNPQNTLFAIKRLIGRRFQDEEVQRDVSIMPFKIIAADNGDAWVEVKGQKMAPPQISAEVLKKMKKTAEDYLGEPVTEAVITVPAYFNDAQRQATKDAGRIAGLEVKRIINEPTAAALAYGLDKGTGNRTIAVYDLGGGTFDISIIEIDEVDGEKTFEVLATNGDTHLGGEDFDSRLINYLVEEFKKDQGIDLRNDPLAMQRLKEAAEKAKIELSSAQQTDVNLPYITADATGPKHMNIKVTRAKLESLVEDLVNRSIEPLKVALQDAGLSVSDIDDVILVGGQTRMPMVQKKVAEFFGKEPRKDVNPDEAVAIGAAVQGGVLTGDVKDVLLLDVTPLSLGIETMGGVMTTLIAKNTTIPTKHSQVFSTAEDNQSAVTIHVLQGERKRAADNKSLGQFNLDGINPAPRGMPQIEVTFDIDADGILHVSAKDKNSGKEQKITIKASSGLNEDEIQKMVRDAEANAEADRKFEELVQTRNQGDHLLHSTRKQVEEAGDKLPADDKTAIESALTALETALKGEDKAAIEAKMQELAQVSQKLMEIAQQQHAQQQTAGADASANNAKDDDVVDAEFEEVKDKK
Give the quantity in µM, number only.

Answered cases to consult:
Provide the reported IC50 (system: DnaK (Escherichia coli)) for CCCCCCCC/C=C\CCCCCCCC(=O)NC(CC(C)C)C(=O)NCCc1ccccc1 (stereo not shown)
7.5

Provide the reported IC50 (system: DnaK (Escherichia coli)) for CCCCCCCCCCCCCCCC(=O)NCc1ccc(C(=O)NCC2CCC(C(=O)O)CC2)cc1 (stereo not shown)
5.9

Provide the reported IC50 (system: DnaK (Escherichia coli)) for CCCCCCCCCCCC(=O)NC(CC(=O)O)C(=O)O (stereo not shown)
177

More entries:
Provide the reported IC50 (system: DnaK (Escherichia coli)) for CCCCCCCCCCCC(=O)NC(Cc1c[nH]c2ccccc12)C(=O)O (stereo not shown)
55.3
